Listing: LDH release cytotoxicity of selected compounds
# Tested on: HepaRG
# PROCEDURE_TEXT: LDH release cytotoxicity, % of total lysis control; higher = more cytotoxic
# CONDITION_PARAMETERS: 100 µM; 48 h
MEASURE_NAME: LDH release cytotoxicity

>>> value_reported("CN1CSC(=S)N(C)C1")
"78%"
>>> value_reported("CC(C)(C)c1cc(O)ccc1O [tert-Butylhydroquinone]")
"-3.84%"
>>> value_reported("CCc1nn(C2CCCCC2)c2cc(C3(C#N)CCC(C(=O)O)CC3)ccc12 (stereo not given)")
"7.65%"
>>> value_reported("COc1cnc(OC)n2nc(NS(=O)(=O)c3c(OCC(F)F)cccc3C(F)(F)F)nc12")
"0.729%"
>>> value_reported("Nc1nc2nc[nH]c2c(=S)[nH]1")
"-0.0388%"
>>> value_reported("OC[C@@H](O)[C@@H](O)[C@H](O)[C@H](O)CO")
"3.29%"
>>> value_reported("c1ccc2occc2c1")
"2.02%"
>>> value_reported("Nc1nc(=O)c2nc(CNc3ccc(C(=O)NC(CCC(=O)O)C(=O)O)cc3)cnc2[nH]1 (stereo not given)")
"1.64%"
>>> value_reported("CCC(=O)Nc1ccc(Cl)c(Cl)c1")
"4.33%"
>>> value_reported("O=C1CN(N=Cc2ccc([N+](=O)[O-])o2)C(=O)N1")
"2.15%"
